test: LC/MS of serum sample: time from centrifugation to isolation (Table K); type: physicochemical, human; conditions: serum sample, LC/MS; detection intensity vs 30 minutes from centrifugation to isolation
measurementType: Increase or decrease

Give the measured Increase or decrease of C[S+]([O-])CC[C@H](N)C(=O)O (some centres unmarked) [Methionine sulfoxide] .
Increase

Give the measured Increase or decrease of N[C@@H](CSSC[C@H](N)C(=O)O)C(=O)O [Cystine] .
Decrease

Give the measured Increase or decrease of O=c1[nH]c(=O)c2[nH]cnc2[nH]1 [Xanthine] .
Increase

Give the measured Increase or decrease of Nc1ncnc2c1ncn2[C@@H]1O[C@H](CSCC[C@H](N)C(=O)O)[C@@H](O)[C@H]1O [S-adenosylhomocysteine] .
Increase

Give the measured Increase or decrease of NC(=O)NC1NC(=O)NC1=O (centres unmarked) [Allantoin] .
Increase

Kindly review the next compound as well.
Give the measured Increase or decrease of N[C@@H](CS)C(=O)O [Cysteine] .
Decrease

---

assay: GC/MS of blood plasma sample: number of times of freezing and thawing (Table C); type: physicochemical, human; conditions: different from individual to individual, individuals with decrease, relative to 1 at 2 times, freezing and thawing 6 times
measurementType: Rate of increase or decrease (second value, decrease)

Give the measured Rate of increase or decrease (second value, decrease) of `CCCCCCCCCCCCCCCCCCO` .
0.68

Give the measured Rate of increase or decrease (second value, decrease) of `O=c1[nH]c(=O)c2[nH]cnc2[nH]1` .
0.51

Give the measured Rate of increase or decrease (second value, decrease) of `CC(=O)N[C@@H](CO)C(=O)O` .
0.69

Give the measured Rate of increase or decrease (second value, decrease) of `O=c1ccn([C@H]2C[C@H](O)[C@@H](CO)O2)c(=O)[nH]1` .
0.67

Give the measured Rate of increase or decrease (second value, decrease) of `Nc1cc[nH]c(=O)n1` .
0.62

Give the measured Rate of increase or decrease (second value, decrease) of `O=C[C@H](O)[C@H](O)[C@H](O)CO` .
0.70

---

experiment: LC/MS of serum sample: time from blood collection to centrifugation (Table J); type: physicochemical, human; conditions: serum sample, LC/MS; detection intensity vs 15 minutes from blood collection to centrifugation
measurementType: Increase or decrease

Example compounds with recorded Increase or decrease:
Give the measured Increase or decrease of `OC[C@H]1O[C@@H](n2cnc3c(O)ncnc32)[C@H](O)[C@@H]1O` .
Decrease

Give the measured Increase or decrease of `CC(C)(CO)[C@@H](O)C(=O)NCCC(=O)O` .
Increase

Give the measured Increase or decrease of `Nc1ccn([C@@H]2O[C@H](CO)[C@@H](O)[C@H]2O)c(=O)n1` .
Decrease

Give the measured Increase or decrease of `Nc1ncnc2c1ncn2[C@@H]1O[C@H](CSCC[C@H](N)C(=O)O)[C@@H](O)[C@H]1O` .
Increase

Give the measured Increase or decrease of `Nc1ncnc2c1ncn2[C@@H]1O[C@H](CO)[C@@H](O)[C@H]1O` .
Decrease

Give the measured Increase or decrease of `CC[C@H](C)[C@H](N)C(=O)O` .
Increase

Give the measured Increase or decrease of `NC(=O)C[C@H](N)C(=O)O` .
Increase

Give the measured Increase or decrease of O=C(O)CC(O)C(=O)O (stereo not drawn) .
Increase

Give the measured Increase or decrease of `N[C@@H](CS)C(=O)O` .
Increase

Give the measured Increase or decrease of `N[C@@H](CO)C(=O)O` .
Increase

Kindly review the next compound as well.
Give the measured Increase or decrease of `NCC(=O)O` .
Increase

---

assay: LC/MS of serum sample: number of times of freezing and thawing (Table M); assay type: physicochemical, human; conditions: serum sample, LC/MS; detection intensity changed by 30% or more vs 2 times of freezing and thawing
measurementType: Number of times when compound is affected (times)

Example compounds with recorded Number of times when compound is affected:
Give the measured Number of times when compound is affected of O=c1[nH]c(=O)c2[nH]c(=O)[nH]c2[nH]1 [Uric acid] .
6

Give the measured Number of times when compound is affected of N=C(N)NCCC[C@H](N)C(=O)O [Arginine] .
6

Give the measured Number of times when compound is affected of CC[C@H](C)[C@H](N)C(=O)O [Isoleucine] .
6

Give the measured Number of times when compound is affected of CC(C)(CO)[C@@H](O)C(=O)NCCC(=O)O [Pantothenic acid] .
10

Give the measured Number of times when compound is affected of OC[C@H]1O[C@@H](n2cnc3c(O)ncnc32)[C@H](O)[C@@H]1O [Inosine] .
4

a = CCC(N)C(=O)O (stereo not shown) [2-Aminobutyric acid]
b = O=C(O)CCC(=O)O [Succinic acid]
# compare Number of times when compound is affected for a vs b ; return the one with the smaller value Identify your pick by its label.
b
(b: 4 times, a: 6 times)

A = N[C@@H](CO)C(=O)O [Serine, serine]
B = O=c1[nH]c(=O)c2[nH]cnc2[nH]1 [Xanthine]
# compare Number of times when compound is affected for A vs B ; return the one with the smaller value Identify your pick by its label.
B
(B: 4 times, A: 6 times)

---

test: GC/MS of serum sample: time from blood collection to centrifugation (Table G); assay type: physicochemical, human; conditions: detection intensity relative to 1 at 15 minutes, blood collection to centrifugation, after 12 hours
measurementType: Rate of increase or decrease

Give the measured Rate of increase or decrease of CC(=O)N[C@@H](CO)C(=O)O [N-acetylserine] .
1.44

Give the measured Rate of increase or decrease of O=C(O)[C@H](O)[C@H](O)[C@H](O)CO [Ribonic acid] .
1.46

Give the measured Rate of increase or decrease of O=C1CCNC(=O)N1 [Dihydrouracil] .
1.30

I = CCCCCCCCCCCCCCCCO [1-Hexadecanol (cetanol), 1-Hexadecanol]
II = O=C(O)CCCc1ccccc1 [Phenylbutyric acid]
# compare Rate of increase or decrease for I vs II ; return the one with the smaller value Identify your pick by its label.
I

---

assay: GC/MS of serum sample: time from blood collection to centrifugation (Table G); assay type: physicochemical, human; conditions: detection intensity relative to 1 at 15 minutes, blood collection to centrifugation, after 4 hours
measurementType: Rate of increase or decrease

Give the measured Rate of increase or decrease of O=C(O)C(=O)O [Oxalic acid] .
1.31

Give the measured Rate of increase or decrease of O=C(O)CO [Glycolic acid] .
1.40

Give the measured Rate of increase or decrease of Nc1c(O)cccc1C(=O)O [3-Hydroxyanthranyl acid] .
0.59

Give the measured Rate of increase or decrease of O=C(O)C(=O)CO [3-Hydroxypyruvic acid] .
0.58

Give the measured Rate of increase or decrease of NCCc1ccc(O)c(O)c1 [Dopamine] .
1.50

Give the measured Rate of increase or decrease of NCCc1ccc(O)cc1 [Tyramine] .
2.37

Give the measured Rate of increase or decrease of O=C(O)CCCCCCCC(=O)O [Azelaic acid] .
0.51

Give the measured Rate of increase or decrease of CCCCCCC(N)C(=O)O (centres unmarked) [2-Aminooctanoic acid] .
1.60

Give the measured Rate of increase or decrease of O=P(O)(O)OCC(O)CO (centres unmarked) [Glycerol-3-phosphate] .
1.39

Give the measured Rate of increase or decrease of O=C[C@H](O)[C@H](O)[C@H](O)CO [Ribose] .
0.41

P = CCCCCCCCCCCCCCCCCC(=O)OCC(O)CO (centres unmarked) [Monostearin]
Q = O=c1cc[nH]c(=O)[nH]1 [Uracil]
# compare Rate of increase or decrease for P vs Q ; return the one with the smaller value Identify your pick by its label.
Q

a = O=C(O)/C=C\C(=O)O [Maleic acid]
b = Nc1ncnc2c1ncn2[C@@H]1O[C@H](CO)[C@@H](O)[C@H]1O [Adenosine]
c = Cn1c(=O)[nH]c2ncn(C)c2c1=O [Paraxanthine]
d = CC(=O)C(=O)O [Pyruvic acid]
Your job: order these 4 records by Rate of increase or decrease, ascending. Hello, could you send the labels back in the order asked? Thank you.
b, d, a, c
(b: 0.17, d: 0.65, a: 1.65, c: 2.98)

---

assay: GC/MS of blood plasma sample: number of times of freezing and thawing (Table C); format: physicochemical, human; conditions: detection intensity relative to 1 at 2 times, freezing and thawing 10 times
measurementType: Rate of increase or decrease

1 = O=C(O)C(O)Cc1ccccc1 (centres unmarked)
2 = OC[C@@H](O)[C@@H](O[C@@H]1O[C@H](CO)[C@H](O)[C@H](O)[C@H]1O)[C@H](O)[C@@H](O)CO
# compare Rate of increase or decrease for 1 vs 2 ; return the one with the smaller value Identify your pick by its label.
1
(1: 0.62, 2: 1.73)

---

experiment: GC/MS of blood plasma sample: time from blood collection to centrifugation (Table A); assay type: physicochemical, human; settings: detection intensity, blood collection to centrifugation, after 4 hours vs 15 minutes
measurementType: Increase or decrease

Give the measured Increase or decrease of Oc1ccc(O)cc1 [Hydroquinone] .
Increase

Give the measured Increase or decrease of `NCCc1c[nH]cn1` .
Increase

Give the measured Increase or decrease of `CS(=O)(=O)CC[C@H](N)C(=O)O` .
Increase

Value source: patent US20220146526A1
